- System: Wolbachia pipientis
- ASSAY_REMARKS: Anti-Wolbachia Cell-Based Screen
- Format: functional
- Set-up: scale not given: in the data most compounds retested in dose-response had high values
- TEST_PARAMETERS: 5 µM
Among all 48,000 compounds or so, about 13,000 (27%) showed an effect of 50% or more. Some of the results follow.
RESULT_TYPE: Percent Effect (%)
Form entry: value (%) — number only.

Sample answers from the record:
>>> measured("CC(C)c1nn(C)c(N2CCOCC2)c1CNCC(=O)N(C)C")
-5.66
>>> measured("CN(C)CCN1CCC2(CCN(C(=O)c3cccc(F)c3)CC2)C1=O.O=C(O)C(F)(F)F")
96.95

query: Field request: Percent Effect | item: COc1c(CNC2(c3noc(C)n3)CCC2)c(C(C)C)nn1C.Cl
result: -8.281

query: Repeat with COc1cccc(OCC(=O)NS(=O)(=O)c2cc(F)ccc2F)c1
result: -14.39

query: And then O=C(NC1CCN(c2snc3ccccc23)CC1)C1CCC1 , what is it?
result: 9.197

###

- Tested on: Wolbachia pipientis
- ASSAY_REMARKS: Anti-Wolbachia Cell-Based Screen
- Assay type: functional
- Parameters: scale not given: in the data most compounds retested in dose-response had high values
- TEST_PARAMETERS: 5 µM
Screen size: about 48,000 compounds; about 13,000 (27%) showed an effect of 50% or more. This is one part of the list.
Percent Effect reference
Please report the result as a number followed by the unit.

Here is how some compounds turned out for Percent Effect.
>>> measured("CC(C)c1nc(C2CCCN(C(=O)c3ccc4[nH]cnc4c3)C2)no1 (stereo not given)")
"1.919%"
>>> measured("CCN(CC)CCn1ccnc1-c1[nH]cnc1C")
"9.707%"
>>> measured("CCNC(=O)NC(=O)CN1CCOC(c2cccc(Br)c2)C1 (stereo not given)")
"-11.97%"

query: Given the entry COc1ccc(CNC2CCN(CCc3ccncc3)CC2)cc1O , report its measured Percent Effect.
result: -10.08%

query: Param item: Cc1nc[nH]c1-c1nccn1CCN1CCCOC1=O
result: 97.83%

query: Also Cc1nc[nH]c1-c1nccn1CCN(C)S(C)(=O)=O , if possible.
result: -5.143%

query: Another compound: NS(=O)(=O)CCN1CCOC(c2ccc(Cl)cc2)C1 (stereo not given)
result: -9.973%

query: Note, next up: Cc1nc[nH]c1-c1nccn1-c1cccc(CN2CCCC2)c1
result: 12.04%

query: And Cc1ccsc1-c1nccn1CCS(=O)(=O)N1CCCC1 ?
result: -5.417%

query: What do you get for O[C@H]1[C@H](NCCc2cnccn2)c2ccccc2C12CCNCC2 ?
result: 1.46%

query: Another compound to look at: Cc1ccc(-c2nc(CN3CCOC(c4ccccc4)C3)cs2)o1 (stereo not given)
result: 7.737%

query: Please give the result for CCn1c(C)nnc1CN(C)C1CCN(Cc2sc(C)nc2C)C1 (stereo not given) too.
result: 1.106%

query: Please do the same for CCc1nc(C2CCCN(C(=O)c3ccc(O)nc3)C2)no1 (stereo not given) as well.
result: 94.4%

query: Another compound: Cc1ccsc1-c1nccn1CCS(C)(=O)=O
result: -15.8%

query: Try this compound too: c1ccc(COCC2CNCc3nccn3C2)nc1 (stereo not given)
result: -7.438%

query: Next: CC(=O)NC(C)(C)c1noc(C2(C#N)CCCCC2)n1
result: -6.661%

query: Also check CCc1ncc(C(=O)N2CCn3c(CC)nnc3C2)s1
result: -2.408%

query: Continue with CS(=O)(=O)c1ccc(CNC[C@H]2COCc3nc4cccnc4n32)cc1
result: -5.618%

query: One more compound: Cc1cc2[nH]c(CN3CCOC(c4ccc(F)cc4)C3)cc(=O)n2n1 (stereo not given)
result: -0.7414%

query: Next entry: CCc1nnc2n1CCN(C(=O)COCCc1ccccc1)C2
result: -3.602%

query: Record: Cc1ncc(CN(C)C2CCCN(Cc3noc(C4CC4)n3)C2)s1 (stereo not given)
result: 1.76%

query: // query: Cc1nc[nH]c1-c1nccn1CCCN(C)C
result: -1.575%

###

- Tested on: Wolbachia pipientis
- ASSAY_REMARKS: Anti-Wolbachia Cell-Based Screen
- Assay type: functional
- Set-up: scale not given: in the data most compounds retested in dose-response had high values
- TEST_PARAMETERS: 5 µM
The whole screen tested about 48,000 compounds, of which about 13,000 (27%) showed an effect of 50% or more. The list shows a part of the results.
Recorded Percent Effect, one value per entry.
Please reply with the bare figure in % and do not write the unit itself.

>>> measured("CC(C)c1nccn1-c1cncc(C2CCCN2Cc2cccnc2)n1 (stereo unspecified)")
151.3
>>> measured("Cc1nccn1-c1cncc(C2CCCN2Cc2cccnc2)n1 (stereo unspecified)")
117.3
>>> measured("Cc1nccn1-c1cncc(C2CCCN2Cc2ccccc2)n1 (stereo unspecified)")
97.46

query: # lookup: Percent Effect of CCc1nc(C2CCCN2Cc2nccn2Cc2ccccc2)no1 (stereo unspecified)
result: 3.12

query: Thanks! And Cc1cc(CN(C)C(=O)c2cccc(CCC(C)(C)O)c2)no1 ?
result: 3.557

query: Also need COC(=O)CCN1CCC(NC(=O)OC(C)(C)C)CC1 , thanks.
result: -7.075

###

- Test system: Wolbachia pipientis
- ASSAY_REMARKS: Anti-Wolbachia Cell-Based Screen
- Format: functional
- Design: scale not given: in the data most compounds retested in dose-response had high values
- TEST_PARAMETERS: 5 µM
About 13,000 (27%) of roughly 48,000 compounds showed an effect of 50% or more. The list shows a part of the results.
RESULT_TYPE: Percent Effect (%)
Just the number please, in %, no unit attached.

query: Look at this molecule and give its reported Percent Effect. COCc1cc(CNC(=O)c2c(C)cc(C)[nH]c2=O)n[nH]1
result: -6.309

query: Field entry: CC(C)CN1C(=O)CO[C@@H]2CN(C(=O)N(C)C)C[C@H]21
result: 9.504

query: Could you do the same for CCn1c(C2CCN(C(=O)c3cc(Cl)no3)CC2)nn(C)c1=O , please?
result: 81.76

query: Queued: Cc1occc1C(=O)NCC(=O)NCCOc1cccc(Cl)c1
result: 23.6

###

- System: Wolbachia pipientis
- ASSAY_REMARKS: Anti-Wolbachia Cell-Based Screen
- Assay type: functional
- Parameters: scale not given: in the data most compounds retested in dose-response had high values
- TEST_PARAMETERS: 5 µM
In all, about 48,000 compounds went through this assay and about 13,000 (27%) showed an effect of 50% or more. This is one part of the list.
Reported Percent Effect values for a set of compounds
Answer in %, number only, no unit symbol.

These solved cases illustrate the format of a correct answer.
>>> measured("Cn1c(=O)oc2ccc(NC(=O)N3CCc4ccccc4C3)cc21")
3.021
>>> measured("Cc1n[nH]cc1CNc1ccc2c(c1)CN(C(=O)OC(C)(C)C)CC2")
-19.63
>>> measured("CC(=O)Nc1ccc2c(c1)CN(C(=O)c1ccco1)CC2")
113.8
>>> measured("COCC(=O)Nc1ccc(Sc2nncn2C)c(Cl)c1")
2.363

query: Suppose we examine the compound Cc1nc2c(c(C)c1CC(=O)Nc1ccc(Cl)cc1)c(=O)[nH]n2C ; what Percent Effect value has been reported?
result: -4.982

query: Do the same for CCC(=O)Nc1ccc2c(c1)CN(C(=O)c1ccco1)CC2 please
result: 20.51

###

- Test system: Wolbachia pipientis
- ASSAY_REMARKS: Anti-Wolbachia Cell-Based Screen
- Format: functional
- Parameters: scale not given: in the data most compounds retested in dose-response had high values
- TEST_PARAMETERS: 5 µM
In all, about 48,000 compounds went through this assay and about 13,000 (27%) showed an effect of 50% or more. Some of the results follow.
RESULT_TYPE: Percent Effect (%)
Field format: number, assumed %, no unit text.

// known answers, use as guide
>>> measured("CC(C)c1nnc(NC(=O)CSCc2cc(=O)n3ccccc3n2)s1")
114.5
>>> measured("COc1ccc(CN2CCn3cncc3C2)cc1Cn1cncn1")
18.87
>>> measured("Cc1cccn2c(=O)cc(CN3CCCC3Cn3cccn3)nc12 (stereo not given)")
11.97
>>> measured("CCOc1ccccc1-c1noc(CN2CCCC(O)C2)n1 (stereo not given)")
-2.765
>>> measured("CC(NC(=O)N1CCC(OCc2ccccc2)CC1)c1nncn1C (stereo not given)")
-3.035
>>> measured("CCN1CC2(CCC1=O)CCN(Cc1cccc(C#N)c1)CC2")
-7.959

query: Any idea what its Percent Effect is? The compound is O=C(NCc1ccccc1)NCC1CCN(Cc2ccsc2)CC1
result: 116.2

query: And the next one, COc1cccc(Cn2cccc(C#N)c2=O)c1 ?
result: -6.219

query: Now try Cc1ccc(CN(Cc2cc(=O)n3cccc(C)c3n2)C(C)C)o1 .
result: 2.311

query: What do we get for FC(F)(F)c1cc(C2CCCN(Cc3cccnc3)C2)n[nH]1 (stereo not given) ?
result: 5.486

query: Now this one: CCOCC(=O)NCC1CCN(Cc2ccsc2)CC1
result: 164

query: Entry to check: O=C(Cn1cncn1)NCC1CCN(Cc2ccccc2Cl)CC1
result: -9.372

query: Also, Cc1cnn(CC(C)NCc2cc(=O)n3ccccc3n2)c1 (stereo not given) please.
result: 4.155

query: Continue with O=C(NCc1ccccc1OCCO)Nc1ccc2c(c1)CCC2
result: 17.01

query: Follow-up item: Cc1noc2nc(C3CCN(Cc4ccncc4)CC3)cc(C(F)F)c12
result: -5.85

query: Would you kindly repeat that for Clc1cc(NCc2ncc[nH]2)nc2[nH]ccc12 ?
result: 61.99

query: Let us now turn to Cc1noc2nc(C3CCCN(Cc4cccnc4)C3)cc(C(F)F)c12 (stereo not given)
result: 110

query: Quick one: Cc1ccccc1CN1CCC(CNC(=O)Cn2cncn2)CC1
result: 9.92

query: Okay, and COc1cc2c(c(OC)c1OC)CCN(CCn1nc(C)cc1C)CC2 ?
result: 72.3
